The following binders are listed with their measured In vitro activity relative to native peptide (%) vs. GIP values.
Biological target: T1, human GIP receptor (human, UniProt P48546 22-466)
T1 sequence (looked up): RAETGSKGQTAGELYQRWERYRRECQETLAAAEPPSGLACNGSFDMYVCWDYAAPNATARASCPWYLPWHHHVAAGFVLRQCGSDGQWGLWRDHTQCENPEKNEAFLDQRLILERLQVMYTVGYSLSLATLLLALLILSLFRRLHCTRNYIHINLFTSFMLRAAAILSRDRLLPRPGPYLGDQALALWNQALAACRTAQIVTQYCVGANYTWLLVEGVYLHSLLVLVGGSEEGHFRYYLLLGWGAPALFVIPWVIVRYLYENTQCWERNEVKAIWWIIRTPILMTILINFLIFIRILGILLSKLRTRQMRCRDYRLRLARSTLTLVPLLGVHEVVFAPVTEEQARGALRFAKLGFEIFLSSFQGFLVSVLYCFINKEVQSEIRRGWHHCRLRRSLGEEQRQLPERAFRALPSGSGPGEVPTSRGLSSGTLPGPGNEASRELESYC
Test: cell-based or functional assay
Bridges are numbered along the chain shown (N, C = ends). Where no end group is shown, it is not given here. [ ]: non-standard residue; d: D form. The star is where a group is joined. Acetyl(2-(4-imidazolyl)) = O=C(Cc1c[nH]cn1)*; Aib = CC(C)(N)C(=O)O
# output: bare number, implied unit %

Consider the following illustrative entries.
[
  {
    "BINDER": "[Acetyl(2-(4-imidazolyl))][Aib]QGTFTSDYSIAMDEIACKDFVNWLLNTK (bridge 16-20; not fully specified) [triple agonist of SEQ ID NO: 61]",
    "TEST VALUE": 2.8
  },
  {
    "BINDER": "Y[Aib]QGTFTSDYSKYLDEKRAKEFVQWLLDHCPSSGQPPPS (bridge 16-20) [triple agonist of SEQ ID NO: 96]",
    "TEST VALUE": 5.2
  },
  {
    "BINDER": "H[Aib]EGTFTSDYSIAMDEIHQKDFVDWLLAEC (bridge 16-20) [triple agonist of SEQ ID NO: 54]",
    "TEST VALUE": 0.1
  }
]

Next binder, In vitro activity relative to native peptide (%) vs. GIP to be filled in.
Query (binder): H[Aib]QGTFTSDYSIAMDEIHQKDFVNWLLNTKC (bridge 16-20) [triple agonist of SEQ ID NO: 35] ; field requested: In vitro activity relative to native peptide (%) vs. GIP
1.3
